Just for reference, patent US20050282743A1 is where these values come from.

measurementTarget: PDZ protein (GST-PDZ fusion) (Homo sapiens, UniProt Q9P202)
Construct: made in house; host or cells: E. coli (DH5alpha, BL21 or JM109)
Sequence (Q9P202 whole entry, the tested form may be a part): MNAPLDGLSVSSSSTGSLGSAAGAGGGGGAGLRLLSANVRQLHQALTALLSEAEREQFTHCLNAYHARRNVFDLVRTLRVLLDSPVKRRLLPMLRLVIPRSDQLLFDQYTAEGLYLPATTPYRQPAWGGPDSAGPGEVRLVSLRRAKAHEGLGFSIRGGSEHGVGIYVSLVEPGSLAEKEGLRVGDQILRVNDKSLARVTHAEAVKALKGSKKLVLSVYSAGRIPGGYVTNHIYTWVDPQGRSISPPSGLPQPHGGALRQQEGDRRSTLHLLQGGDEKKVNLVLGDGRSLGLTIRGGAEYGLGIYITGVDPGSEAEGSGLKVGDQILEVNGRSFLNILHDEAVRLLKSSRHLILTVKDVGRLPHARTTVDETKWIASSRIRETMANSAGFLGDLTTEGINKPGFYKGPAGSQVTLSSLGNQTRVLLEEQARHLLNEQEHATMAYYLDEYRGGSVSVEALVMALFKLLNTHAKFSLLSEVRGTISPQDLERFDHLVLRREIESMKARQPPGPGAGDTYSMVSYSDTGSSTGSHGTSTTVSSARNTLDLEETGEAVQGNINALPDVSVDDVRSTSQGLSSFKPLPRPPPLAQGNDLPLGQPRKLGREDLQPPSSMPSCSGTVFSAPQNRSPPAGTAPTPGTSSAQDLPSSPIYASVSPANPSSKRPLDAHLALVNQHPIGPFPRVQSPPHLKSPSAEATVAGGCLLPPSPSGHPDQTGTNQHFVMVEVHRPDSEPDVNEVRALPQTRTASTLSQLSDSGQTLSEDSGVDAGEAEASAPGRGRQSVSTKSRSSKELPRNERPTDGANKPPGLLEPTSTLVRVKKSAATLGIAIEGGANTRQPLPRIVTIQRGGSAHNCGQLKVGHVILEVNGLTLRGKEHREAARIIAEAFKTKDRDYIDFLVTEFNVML
testMethodNotes: G' assay (10 uM PL peptide), results of TABLE 7 and TABLE 12
Format: binding
conditionContext: PDZ KIAA1526, PDZ Domain 1
Ends that are not written are not given here. * marks the point of attachment. Biotin = O=C1N[C@H]2[C@H](CS[C@H]2CCCCC(=O)*)N1
Listing of entries alongside the reported Classification.

Worked cases, answers included:
substance: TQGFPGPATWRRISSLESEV
Classification: 3 (A450 nm 2-3)
//
substance: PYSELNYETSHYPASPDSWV (Biotin-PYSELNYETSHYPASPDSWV) [catenin - delta 2]
Classification: 2 (A450 nm 1-2)
//
substance: A2AA_HUMAN (modified) (Biotin-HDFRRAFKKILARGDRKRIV; not fully specified)
Classification: 4 (A450 nm 3-4)

TEGNESSEATSPVNAIYSLA (Biotin-TEGNESSEATSPVNAIYSLA) [neurofascin (chicken)] has a reported Classification of 1 (A450 nm 0-1)

Short answer for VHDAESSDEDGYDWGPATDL (Biotin-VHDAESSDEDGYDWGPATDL) [zona occludens 3 (ZO-3)] : Classification was 1 (A450 nm 0-1)

* * *

Measured Classification accompanies every entry in the list below.
measurementTarget: PDZ protein (GST-PDZ fusion) (Homo sapiens, UniProt Q8NI35)
Construct: made in house; host or cells: E. coli (DH5alpha, BL21 or JM109)
testMethodNotes: G' assay (10 uM PL peptide), results of TABLE 7 and TABLE 12
Assay type: binding
conditionContext: PDZ INADL, PDZ Domain 3
Ends that are not written are not given here. * marks the point of attachment. Biotin = O=C1N[C@H]2[C@H](CS[C@H]2CCCCC(=O)*)N1

substance: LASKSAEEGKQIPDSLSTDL (Biotin-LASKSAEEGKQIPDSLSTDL) [Dock2]
measurementTarget: PDZ protein (GST-PDZ fusion) (Homo sapiens, UniProt Q8NI35)
Classification: 1 (A450 nm 0-1)

substance: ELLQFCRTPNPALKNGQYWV (Biotin-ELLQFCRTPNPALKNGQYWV)
measurementTarget: PDZ protein (GST-PDZ fusion) (Homo sapiens, UniProt Q8NI35)
Classification: 3 (A450 nm 2-3)

substance: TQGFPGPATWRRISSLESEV
measurementTarget: PDZ protein (GST-PDZ fusion) (Homo sapiens, UniProt Q8NI35)
Classification: 2 (A450 nm 1-2)

substance: YSQPSARSEGEFKQTSSFLV (Biotin-YSQPSARSEGEFKQTSSFLV) [JAM (junctional adhesion molecule)]
measurementTarget: PDZ protein (GST-PDZ fusion) (Homo sapiens, UniProt Q8NI35)
Classification: 1 (A450 nm 0-1)

// below: Classification requested for another substance
Classification measured on A2AA_HUMAN (modified) (Biotin-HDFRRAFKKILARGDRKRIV; not fully specified) = 2 (A450 nm 1-2)

* * *

measurementTarget: PDZ protein (GST-PDZ fusion) (Homo sapiens, UniProt Q8TEW0)
Construct: made in house; host or cells: E. coli (DH5alpha, BL21 or JM109)
Sequence (Q8TEW0 whole entry, the tested form may be a part): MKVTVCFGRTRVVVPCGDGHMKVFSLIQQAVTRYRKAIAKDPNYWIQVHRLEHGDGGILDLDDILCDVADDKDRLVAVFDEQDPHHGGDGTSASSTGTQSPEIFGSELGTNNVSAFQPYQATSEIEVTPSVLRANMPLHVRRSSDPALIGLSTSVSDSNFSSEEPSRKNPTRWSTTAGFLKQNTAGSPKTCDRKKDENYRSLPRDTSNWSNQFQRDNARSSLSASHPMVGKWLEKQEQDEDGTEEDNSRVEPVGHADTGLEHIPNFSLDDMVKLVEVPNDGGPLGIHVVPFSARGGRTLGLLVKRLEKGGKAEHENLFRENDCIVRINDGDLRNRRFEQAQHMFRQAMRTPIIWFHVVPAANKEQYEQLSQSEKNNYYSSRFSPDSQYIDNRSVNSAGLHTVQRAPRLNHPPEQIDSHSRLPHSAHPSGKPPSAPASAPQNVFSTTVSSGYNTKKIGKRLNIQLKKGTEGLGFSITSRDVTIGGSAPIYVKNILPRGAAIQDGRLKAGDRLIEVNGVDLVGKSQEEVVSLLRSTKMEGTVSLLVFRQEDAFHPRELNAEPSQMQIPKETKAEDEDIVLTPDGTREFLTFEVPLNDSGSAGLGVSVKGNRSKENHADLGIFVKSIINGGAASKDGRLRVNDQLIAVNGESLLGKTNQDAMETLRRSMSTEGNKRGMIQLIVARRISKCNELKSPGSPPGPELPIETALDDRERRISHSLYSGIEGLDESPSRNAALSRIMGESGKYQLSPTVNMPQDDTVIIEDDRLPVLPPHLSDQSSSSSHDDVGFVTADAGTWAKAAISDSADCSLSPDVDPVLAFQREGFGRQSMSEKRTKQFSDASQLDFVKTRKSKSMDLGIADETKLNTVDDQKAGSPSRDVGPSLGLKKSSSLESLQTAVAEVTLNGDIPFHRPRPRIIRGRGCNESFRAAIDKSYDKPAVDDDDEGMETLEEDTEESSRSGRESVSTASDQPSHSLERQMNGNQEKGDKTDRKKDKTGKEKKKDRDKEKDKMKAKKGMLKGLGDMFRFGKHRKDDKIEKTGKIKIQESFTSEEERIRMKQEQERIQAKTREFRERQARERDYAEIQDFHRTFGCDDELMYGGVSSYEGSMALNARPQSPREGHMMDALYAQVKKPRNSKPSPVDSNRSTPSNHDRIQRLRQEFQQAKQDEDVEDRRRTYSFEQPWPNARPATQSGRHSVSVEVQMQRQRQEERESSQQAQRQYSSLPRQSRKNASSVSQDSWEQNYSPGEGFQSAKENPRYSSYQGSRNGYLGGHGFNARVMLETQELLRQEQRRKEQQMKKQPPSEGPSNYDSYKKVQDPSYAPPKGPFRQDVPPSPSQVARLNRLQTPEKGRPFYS
testMethodNotes: G' assay (10 uM PL peptide), results of TABLE 7 and TABLE 12
Format: binding
conditionContext: PDZ PAR3, PDZ Domain 3
Ends that are not written are not given here. * marks the point of attachment. Biotin = O=C1N[C@H]2[C@H](CS[C@H]2CCCCC(=O)*)N1
resultType: Classification

The substance listed as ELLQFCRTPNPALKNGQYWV (Biotin-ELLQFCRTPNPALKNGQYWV) has a reported Classification of 3 (A450 nm 2-3)

get_value(item= A2AA_HUMAN (modified) (Biotin-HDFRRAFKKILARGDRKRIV; not fully specified) , readout=Classification) returns 2 (A450 nm 1-2)

So, PTR2_HUMAN (Biotin-RPMESNPDTEGAQGETEDVL) ? Its Classification was 1 (A450 nm 0-1)

Briefly, Classification measured for VDPNSPAAKKKYVSYNNLVI [GLUR7 (metabotropic glutamate receptor)] : 2 (A450 nm 1-2)

* * *

measurementTarget: PDZ protein (GST-PDZ fusion) (Homo sapiens, UniProt Q14160)
Construct: made in house; host or cells: E. coli (DH5alpha, BL21 or JM109)
testMethodNotes: G' assay (10 uM PL peptide), results of TABLE 7 and TABLE 12
Type: binding
conditionContext: PDZ KIAA0147, PDZ Domain 1
Ends that are not written are not given here. * marks the point of attachment. Biotin = O=C1N[C@H]2[C@H](CS[C@H]2CCCCC(=O)*)N1
resultType: Classification

Recorded Classification, per entry:
substance: GGGGGSGGGGGSGIESVKI [GLUR2 (glutamate receptor 2-modified)]
Classification: 1 (A450 nm 0-1)

substance: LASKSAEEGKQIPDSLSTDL (Biotin-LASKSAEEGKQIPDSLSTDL) [Dock2]
Classification: 1 (A450 nm 0-1)

substance: PYQSQGFSTEEDEDEQVSAV (Biotin-PYQSQGFSTEEDEDEQVSAV) [RA-GEF (ras/rap1A-assoc-GEF)]
Classification: 1 (A450 nm 0-1)

substance: APC—adenomatous polyposis coli protein (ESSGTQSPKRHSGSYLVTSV)
Classification: 1 (A450 nm 0-1)

substance: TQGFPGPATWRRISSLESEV
Classification: 5 (A450 nm of 4 more than 2× repeated)

// switching to the query substance
Consider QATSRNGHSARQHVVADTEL (Biotin-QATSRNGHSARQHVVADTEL) [CD34] . Its measured Classification is 1 (A450 nm 0-1)

* * *

measurementTarget: PDZ protein (GST-PDZ fusion) (Homo sapiens, UniProt O15085)
Construct: made in house; host or cells: E. coli (DH5alpha, BL21 or JM109)
Sequence (O15085 whole entry, the tested form may be a part): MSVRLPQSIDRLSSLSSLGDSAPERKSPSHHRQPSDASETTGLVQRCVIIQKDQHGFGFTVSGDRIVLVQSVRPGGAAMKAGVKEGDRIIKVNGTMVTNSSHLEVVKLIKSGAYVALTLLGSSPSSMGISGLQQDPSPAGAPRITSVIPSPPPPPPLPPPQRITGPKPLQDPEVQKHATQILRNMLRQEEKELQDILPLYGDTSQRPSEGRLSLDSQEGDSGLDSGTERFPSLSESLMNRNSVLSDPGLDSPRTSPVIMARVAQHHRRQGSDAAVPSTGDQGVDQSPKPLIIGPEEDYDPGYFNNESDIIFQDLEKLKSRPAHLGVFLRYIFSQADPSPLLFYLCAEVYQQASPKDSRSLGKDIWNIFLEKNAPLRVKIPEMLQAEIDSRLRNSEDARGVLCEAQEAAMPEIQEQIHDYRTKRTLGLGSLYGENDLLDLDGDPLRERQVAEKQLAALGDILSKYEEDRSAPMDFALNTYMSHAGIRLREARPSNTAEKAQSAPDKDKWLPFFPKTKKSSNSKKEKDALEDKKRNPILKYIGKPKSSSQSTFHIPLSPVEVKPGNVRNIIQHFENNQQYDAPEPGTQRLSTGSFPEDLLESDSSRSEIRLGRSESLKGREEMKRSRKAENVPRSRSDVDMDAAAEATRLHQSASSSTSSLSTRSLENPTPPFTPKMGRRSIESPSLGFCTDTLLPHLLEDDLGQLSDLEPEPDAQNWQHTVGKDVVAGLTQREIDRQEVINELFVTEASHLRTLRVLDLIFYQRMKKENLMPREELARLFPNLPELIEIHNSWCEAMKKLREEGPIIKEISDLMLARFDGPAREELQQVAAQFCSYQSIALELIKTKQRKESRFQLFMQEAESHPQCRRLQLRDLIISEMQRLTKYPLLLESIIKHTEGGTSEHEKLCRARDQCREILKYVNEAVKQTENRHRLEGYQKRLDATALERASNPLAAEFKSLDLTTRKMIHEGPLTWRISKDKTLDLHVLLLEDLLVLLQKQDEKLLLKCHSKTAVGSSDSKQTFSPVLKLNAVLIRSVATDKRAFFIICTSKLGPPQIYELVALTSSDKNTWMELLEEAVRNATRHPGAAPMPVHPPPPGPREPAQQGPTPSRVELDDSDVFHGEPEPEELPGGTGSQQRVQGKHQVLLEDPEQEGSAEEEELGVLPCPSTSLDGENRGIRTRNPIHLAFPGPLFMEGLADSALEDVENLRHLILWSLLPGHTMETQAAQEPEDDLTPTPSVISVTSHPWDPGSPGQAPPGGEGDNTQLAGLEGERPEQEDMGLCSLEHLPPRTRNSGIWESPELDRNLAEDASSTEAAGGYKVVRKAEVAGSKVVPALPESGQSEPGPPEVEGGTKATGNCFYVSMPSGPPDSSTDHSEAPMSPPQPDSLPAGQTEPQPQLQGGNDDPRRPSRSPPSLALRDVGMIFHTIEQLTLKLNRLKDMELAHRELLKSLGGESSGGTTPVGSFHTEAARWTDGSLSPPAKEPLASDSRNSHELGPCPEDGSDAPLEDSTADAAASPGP
testMethodNotes: G' assay (10 uM PL peptide), results of TABLE 7 and TABLE 12
Type: binding
conditionContext: PDZ KIAA0380, PDZ Domain 1
Ends that are not written are not given here. * marks the point of attachment. Biotin = O=C1N[C@H]2[C@H](CS[C@H]2CCCCC(=O)*)N1
resultType: Classification

Below: 3 sequences and their reported Classification.
inputSequence: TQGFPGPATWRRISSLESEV
measurementTarget: PDZ protein (GST-PDZ fusion) (Homo sapiens, UniProt O15085)
testValue: 1 (A450 nm 0-1)

inputSequence: ARHRVTSYTSSSVNVSSNL (Biotin-ARHRVTSYTSSSVNVSSNL) [IL-8RB]
measurementTarget: PDZ protein (GST-PDZ fusion) (Homo sapiens, UniProt O15085)
testValue: 1 (A450 nm 0-1)

inputSequence: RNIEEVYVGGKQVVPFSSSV (Biotin-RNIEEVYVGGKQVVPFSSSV) [Nedasin (s-form)]
measurementTarget: PDZ protein (GST-PDZ fusion) (Homo sapiens, UniProt O15085)
testValue: 1 (A450 nm 0-1)

Let us move to another entry and its Classification.
# Classification (sequence: SSKSKSSEESQTFFGLYKL (Biotin-SSKSKSSEESQTFFGLYKL) [Fas Ligand] ) is 3 (A450 nm 2-3)

* * *

Some sequences, each annotated with its measured Classification.
measurementTarget: PDZ protein (GST-PDZ fusion) (Homo sapiens, UniProt Q02410)
Construct: made in house; host or cells: E. coli (DH5alpha, BL21 or JM109)
Sequence (Q02410 1-837): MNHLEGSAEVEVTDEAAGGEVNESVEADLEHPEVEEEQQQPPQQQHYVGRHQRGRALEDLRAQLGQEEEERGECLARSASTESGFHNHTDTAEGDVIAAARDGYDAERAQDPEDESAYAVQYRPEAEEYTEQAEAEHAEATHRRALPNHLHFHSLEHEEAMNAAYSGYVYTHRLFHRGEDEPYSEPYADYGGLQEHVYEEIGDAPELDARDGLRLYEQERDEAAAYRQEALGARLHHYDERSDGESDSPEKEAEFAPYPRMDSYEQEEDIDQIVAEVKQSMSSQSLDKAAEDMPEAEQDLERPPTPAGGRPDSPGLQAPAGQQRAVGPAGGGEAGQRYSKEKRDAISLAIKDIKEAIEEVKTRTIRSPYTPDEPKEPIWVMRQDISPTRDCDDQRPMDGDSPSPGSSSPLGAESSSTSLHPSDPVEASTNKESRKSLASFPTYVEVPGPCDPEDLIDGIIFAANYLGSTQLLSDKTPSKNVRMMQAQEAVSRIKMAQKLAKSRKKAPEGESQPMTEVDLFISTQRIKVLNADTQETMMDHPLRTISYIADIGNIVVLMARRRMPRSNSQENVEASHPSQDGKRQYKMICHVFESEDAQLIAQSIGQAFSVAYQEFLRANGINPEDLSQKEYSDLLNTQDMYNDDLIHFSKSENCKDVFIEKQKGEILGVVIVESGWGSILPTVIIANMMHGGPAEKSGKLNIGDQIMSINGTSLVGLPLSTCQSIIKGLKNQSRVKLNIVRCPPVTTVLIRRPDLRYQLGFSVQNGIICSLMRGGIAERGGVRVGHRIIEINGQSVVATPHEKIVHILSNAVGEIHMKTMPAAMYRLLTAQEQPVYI
testMethodNotes: G' assay (10 uM PL peptide), results of TABLE 7 and TABLE 12
Assay type: binding
conditionContext: PDZ Mint 1, PDZ Domain 2
Ends that are not written are not given here. * marks the point of attachment. Biotin = O=C1N[C@H]2[C@H](CS[C@H]2CCCCC(=O)*)N1

inputSequence: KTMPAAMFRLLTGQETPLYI (Biotin-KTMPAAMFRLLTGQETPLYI) [MINT-2]
Classification: 1 (A450 nm 0-1)

inputSequence: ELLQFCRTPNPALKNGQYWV (Biotin-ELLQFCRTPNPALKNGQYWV)
Classification: 5 (A450 nm of 4 more than 2× repeated)

inputSequence: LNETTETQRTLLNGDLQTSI (Biotin-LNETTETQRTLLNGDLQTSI) [SSTR2 (somatostatin recepor 2)]
Classification: 1 (A450 nm 0-1)

inputSequence: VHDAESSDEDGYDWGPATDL (Biotin-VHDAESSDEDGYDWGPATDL) [zona occludens 3 (ZO-3)]
Classification: 2 (A450 nm 1-2)

Please look at the following sequence next.
Field Classification (entry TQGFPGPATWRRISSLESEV ) reads 1 (A450 nm 0-1)
